System: scuticociliates
assayDetails: Scuticociliates extermination effect of candidate substances in MEM medium
Type: cell-based
conditionInfo: MEM medium, Dosage 2500 ppm
readoutType: Survival or Death of scuticociliates (activity and shape, microscope)

compoundstructurestring=C1CNCCN1 testresult=Survival
compoundstructurestring=CN1CCCN=C1/C=C/c1cccs1 testresult=Survival
compoundstructurestring=c1ccc([C@H]2CN3CCSC3=N2)cc1 testresult=Survival

---

Tested on: scuticociliates
assayDetails: Scuticociliates extermination effect of candidate substances in MEM medium
Type: cell-based
conditionInfo: MEM medium, Dosage 1000 ppm
Method: CHSE-214 cell line into which scuticociliates were inoculated was cultured in advance. The CHSE-214 cell line was cultured in an incubator using an MEM medium at 22° C. Scuticociliates inoculated into the cell line proliferated for 3 days by which the number reaches to be capable of analyzing in vitro anti-scuticociliates effect. Scuticociliates that feed on the cell line and sufficiently grow were mixed with the candidate substance and the activity of scuticociliates was measured. […]
readoutType: Survival or Death of scuticociliates (activity and shape, microscope)

// known answers, use as guide
compound="O=[N+]([O-])NC1=NCCN1Cc1ccc(Cl)nc1 [Imidacloprid]" testresult=Δ
compound="COC(=O)Nc1nc2ccc(Sc3ccccc3)cc2[nH]1 [Fenbendazole]" testresult=Death
compound="Nc1cc(C(Cl)=C(Cl)Cl)c(S(N)(=O)=O)cc1S(N)(=O)=O [Clorsulon]" testresult=Δ
compound="COP(=O)(OC)C(O)C(Cl)(Cl)Cl (stereo not shown) [Trichlorfon]" testresult=Death
compound="C1CNCCN1 [Piperazine]" testresult=Survival
compound="CCCOc1ccc2nc(NC(=O)OC)[nH]c2c1 [Oxibendazole]" testresult=Survival
compound="CN1CCCN=C1/C=C/c1cccs1 [Pyrantel]" testresult=Survival
compound="O=C(OCc1ccccc1)c1ccccc1 [Benzyl benzonate]" testresult=Δ

Hi team, please reply with Survival or Death of scuticociliates (activity and shape, microscope) for each item in this list.
1. CC1(C)[C@H](C(=O)O[C@H](C#N)c2cccc(Oc3ccccc3)c2)[C@@H]1C=C(Br)Br [Deltamethrin]
2. c1ccc([C@H]2CN3CCSC3=N2)cc1 [Levamisol]

Found:
["Δ", "Survival"]

---

System: scuticociliates
assayDetails: Scuticociliates extermination effect of candidate substances in seawater medium
Assay type: cell-based
conditionInfo: seawater medium, 4 hour, Dosage 4000 ppm
Experimental: For this, scuticociliates were cultured in CHSE-214 cell line (using MEM medium), and then scuticociliates were collected and centrifuged with sterilized seawater or artificial seawater (20‰) to replace them with a seawater medium. Each of 100 μl (1×10^5) was dispensed into each well of 96 wells, followed by further culture for 30 minutes. […]
readoutType: Survival or Death of scuticociliates (activity and shape, microscope)

// known answers, use as guide
molecule="c1ccc(C2CN3CCSC3=N2)cc1 (stereo not drawn)" testresult=Survival
molecule=c1ccc([C@H]2CN3CCSC3=N2)cc1 testresult=Survival
molecule=C1CNCCN1 testresult=Survival
molecule=CCCOc1ccc2nc(NC(=O)OC)[nH]c2c1 testresult=Death
molecule=CN1CCCN=C1/C=C/c1cccs1 testresult=Survival

Could you now look at the following molecule, please?
Lookup: Entry `CC[C@H](C)[C@H]1O[C@]2(CC[C@@H]1C)C[C@@H]1C[C@@H](C/C=C(\C)[C@@H](O[C@H]3C[C@H](OC)[C@@H](O[C@H]4C[C@H](OC)[C@@H](O)[C@H](C)O4)[C@H](C)O3)[C@@H](C)/C=C/C=C3\CO[C@@H]4[C@H](O)C(C)=C[C@@H](C(=O)O1)[C@]34O)O2` : reported Survival or Death of scuticociliates (activity and shape, microscope) = ?
Found: Survival
